Assay: Aqueous solubility of topiramate
Type: physicochemical
Conditions: de-ionized water, 37 °C, thermodynamic from solid, read-out: Solubility of neat topiramate measured in de-ionized water
Experimental: Aqueous solubility is determined by adding the therapeutic agent to stirred or agitated water maintained in a constant temperature bath at a temperature of 37 degrees centigrade until no more agent dissolves. […]
Measure: solubility (mg/mL)
Value expressed in mg/mL; do not type the unit.

Dear colleague, I am looking for the recorded solubility of the following molecule: CC1(C)O[C@@H]2[C@@H](CO[C@@]3(COS(N)(=O)=O)OC(C)(C)O[C@@H]23)O1 [Topiramate, topiramate] 12

Reference source: patent US20050058707A1
